- experimentalSystem: 17β-hydroxysteroid dehydrogenase 1 (17β-HSD1) (Homo sapiens, UniProt P14061)
- Construct: gene HSD17B1
- Sequence (P14061 2-328): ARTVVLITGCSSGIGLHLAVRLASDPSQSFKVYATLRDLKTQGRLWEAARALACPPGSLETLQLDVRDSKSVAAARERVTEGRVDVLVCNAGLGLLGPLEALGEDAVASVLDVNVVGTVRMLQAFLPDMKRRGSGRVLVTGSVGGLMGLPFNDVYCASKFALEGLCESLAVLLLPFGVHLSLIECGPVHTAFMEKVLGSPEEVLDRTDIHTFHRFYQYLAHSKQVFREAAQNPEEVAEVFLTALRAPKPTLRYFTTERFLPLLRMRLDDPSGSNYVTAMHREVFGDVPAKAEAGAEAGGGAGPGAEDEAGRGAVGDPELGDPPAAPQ
- experimentNotes: radiolabeled estrone to estradiol conversion in lysates of transfected HEK-293 cells; also intact COV434 cells (IC50 […])
- Assay type: biochemical
propertyMeasured: pIC50
Please report pIC50 as the negative decimal logarithm of the molar concentration, giving only the number.

In: State its pIC50 on 17β-hydroxysteroid dehydrogenase 1 (17β-HSD1) (Homo sapiens, UniProt P14061): CCCCCCOC(=O)c1ccc(O)cc1
Out: 5.59
